Provide the recorded activity change, negative = inhibition for the entries that follow.
assayMethodText: Acumen qHTS Assay for Inhibitors of the mTORC1 Signaling Pathway in MEF (Tsc2-/-, p53-/-) Cells: Hit Validation;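 note: phospho-rpS6 Ser235/236 immunofluorescence normalized to propidium iodide cell count; cells exposed to compound for 24 hours; plate controls were DMSO for no effect and 7.5 nM rapamycin control for full effect; nearly all actives have a fitted effect of over 65% in size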
setupConditions: Acumen imaging; at 37.3 µM (top of the series)
Results filed as inconclusive are left out.
Numbers only, in %.

Answered cases to consult:
> print(dat)
                                    compound                             readouttype  measurement
 1  Cc1cccc(C(=O)Nc2c3c(nn2-c2ccc(Cl)cc2)CS(=O)(=O)C3)c1  activity change, negative = inhibition         12.6
 2     Cc1ccc2oc(-c3ccc(Cl)cc3)c(O)c(=O)c2c1  activity change, negative = inhibition        -44.5
 3  COc1ccc(NC(=O)CSc2nc3ccccc3n2Cc2cccc(OC)c2)cc1  activity change, negative = inhibition        -5.71
 4  O=C(NCc1ccc(F)cc1)c1ccc2c(Cl)c3c(nc2c1)CCCC3  activity change, negative = inhibition         26.5
 5          O=S(=O)(c1cccc2cnccc12)N1CCCNCC1  activity change, negative = inhibition         -7.7
 6  COc1ccc(-c2cc(C(F)(F)F)nc(S(C)(=O)=O)n2)cc1  activity change, negative = inhibition        -88.8
 7  O=C(Cn1c(=O)c2ccccc2n(CC(=O)Nc2ccc(Cl)cc2)c1=O)NCCc1ccccc1  activity change, negative = inhibition        0.576
 8  O=C(NC1CCCCC1)/C(=C/c1ccc(Cl)cc1)NC(=O)c1ccccc1  activity change, negative = inhibition        -5.63
 9  COc1ccc(Cl)cc1C1CC(=O)Nc2cc3c(cc21)OCCO3 (stereo unspecified)  activity change, negative = inhibition        -26.9
10  CCCCNC(=O)CSc1nc2nc(C)c(Cc3ccccc3C)c(C)n2n1  activity change, negative = inhibition         7.74

Please give activity change, negative = inhibition, item by item, for the list that follows.
1. O=C(c1ccco1)n1nc(-c2ccc(Cl)cc2)nc1NCc1ccccc1
2. Cc1cccc(C(=O)Nc2c(C(=O)NCc3ccc(Cl)cc3)sc3nc(C)cc(C)c23)c1

Reply text:
-47.3
-92.4

Please give activity change, negative = inhibition, item by item, for the list that follows.
1. CCOc1c(Br)cc(C2CC(=O)Nc3cc4c(cc32)OCO4)cc1OC (stereo unspecified)
2. COc1ccc(N(C)C(=O)c2cc(S(=O)(=O)N3CCc4ccccc43)cn2C)c(OC)c1
3. COc1ccc(N2CCN(C(=O)C(C)n3nc(C)c4sc5ccccc5c4c3=O)CC2)cc1 (stereo unspecified)

Reply text:
1: -47.7; 2: 18.7; 3: 1.14

Please give activity change, negative = inhibition, item by item, for the list that follows.
1. O=C(CCS(=O)(=O)c1nc(-c2cccs2)cc(C(F)(F)F)n1)Nc1cccc(O)c1
2. CCOc1ccc(Nc2nc(-c3cccc(Cl)c3)c3c(n2)-c2ccccc2OC3)cc1
3. CS(=O)(=O)c1ncc(Cl)c(C(=O)N(Cc2ccc(Cl)cc2)Cc2ccco2)n1
4. CCOc1ccccc1NC(=O)CSc1cc(=O)n(CC)c2ccccc12

Reply text:
1. -112
2. 6.48
3. -102
4. 1.04

Please give activity change, negative = inhibition, item by item, for the list that follows.
1. COc1ccc(-c2nc(S(=O)(=O)c3ccc(Cl)cc3)c(N3CCCCCC3)o2)cc1
2. O=C(CC(NCc1cccnc1)C(=O)O)Nc1ccc(O)cc1 (stereo unspecified)

Reply text:
2.12
5.37
